# PROCEDURE DETAILS: Stability of solutions in alkaline phosphate buffer, content by HPLC
# Type: physicochemical
# TEST PARAMETERS: phosphate buffer, pH 10, phosphate buffer pH10, 37°C, standing time 6h; read-out: content of mangiferin aglycone
VALUE TYPE: remaining at 6 h (%)

1. O=c1c2cc(O)c(O)cc2oc2cc(O)cc(O)c12 [mangiferin aglycone crystal form I, 1,3,6,7-tetrahydroxyxanthone]: 97

* * *

# PROCEDURE DETAILS: Blood concentration after oral (intragastric) administration to Beagle dogs
# Assay type: in vivo
# TEST PARAMETERS: intragastrically, 6mg/kg, solid powder, 0.5 hr, listed as Commercially available mangiferin aglycone, 6 mg/kg, 30 min, read-out: Mangiferin aglycone concentration in serum
VALUE TYPE: concentration (nM)

1) O=c1c2cc(O)c(O)cc2oc2cc(O)cc(O)c12 [mangiferin aglycone, 1,3,6,7-tetrahydroxyxanthone]: 404

* * *

# PROCEDURE DETAILS: Stability of solutions in alkaline phosphate buffer, content by HPLC
# Type: physicochemical
# TEST PARAMETERS: phosphate buffer, pH 10, phosphate buffer pH10, 37°C, standing time 4h; read-out: content of mangiferin aglycone
VALUE TYPE: remaining at 4 h (%)

1) O=c1c2cc(O)c(O)cc2oc2cc(O)cc(O)c12 [mangiferin aglycone crystal form I, 1,3,6,7-tetrahydroxyxanthone]: 97.4

* * *

# PROCEDURE DETAILS: Blood concentration after oral (intragastric) administration to Beagle dogs
# Assay type: in vivo
# TEST PARAMETERS: dog, serum, po, 6 mg/kg, intragastrically, 6mg/kg, solid powder, 0.75 hr, read-out: Mangiferin aglycone concentration in serum
# Procedure: Solid powder of mangiferin aglycone crystal form I and commercially available mangiferin aglycone (reference substance of mangiferin aglycone, purchased from Sigma Corporation, Lot No.: 8420-201002) were administered to Beagle dogs intragastrically respectively. The dosage of administration was 6mg/kg, and arterial blood of the dogs was drawn at different time points after administration to determine the content of mangiferin aglycone (See Table 4 and Figure 6). Table 4. […]
VALUE TYPE: concentration at 0.75 h (nM)

1) O=c1c2cc(O)c(O)cc2oc2cc(O)cc(O)c12 [mangiferin aglycone crystal form I, 1,3,6,7-tetrahydroxyxanthone]: 601

* * *

# PROCEDURE DETAILS: Stability of solutions in alkaline phosphate buffer, content by HPLC
# Format: physicochemical
# TEST PARAMETERS: phosphate buffer, pH 9, phosphate buffer pH9, 37°C, standing time 12h; read-out: content of mangiferin aglycone
VALUE TYPE: remaining at 12 h (%)

1. O=c1c2cc(O)c(O)cc2oc2cc(O)cc(O)c12 [mangiferin aglycone crystal form I, 1,3,6,7-tetrahydroxyxanthone]: 97.2

* * *

# PROCEDURE DETAILS: Blood concentration after oral (intragastric) administration to Beagle dogs
# Type: in vivo
# TEST PARAMETERS: intragastrically, 6mg/kg, solid powder, 3 hr, listed as Commercially available mangiferin aglycone, 6 mg/kg, 180 min, read-out: Mangiferin aglycone concentration in serum
VALUE TYPE: concentration

1) O=c1c2cc(O)c(O)cc2oc2cc(O)cc(O)c12 [mangiferin aglycone, 1,3,6,7-tetrahydroxyxanthone]: 100 nM

* * *

# PROCEDURE DETAILS: Blood concentration after oral (intragastric) administration to Beagle dogs
# Format: in vivo
# TEST PARAMETERS: intragastrically, 6mg/kg, solid powder, 6 hr, listed as Commercially available mangiferin aglycone, 6 mg/kg, 360 min, read-out: Mangiferin aglycone concentration in serum
VALUE TYPE: concentration (nM)

1. O=c1c2cc(O)c(O)cc2oc2cc(O)cc(O)c12 [mangiferin aglycone, 1,3,6,7-tetrahydroxyxanthone]: 52.6
